Where these numbers come from: paper PMC5540273

tested on: MAP3K3; details: concentration: 1 μM, replicates: in singlicate; n = 1;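 also: KINOMEscan kinase panel screen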
Task for the reader: assign each of the following compounds its reported %Inh.
Output should be the measured figure followed by the unit it is expressed in.

Query: Provide measured %Inh value, entry: COc1ccc(-c2oc3ncnc(N)c3c2-c2ccc(OC)cc2)cc1 [SB-589132]
Reply: 0%

Query: Provide measured %Inh value, entry: "C[C@@H]1CCN(C(=O)CO)C[C@@H]1N(C)c1ncnc2[nH]ccc12"
Reply: 7%

Query: Provide measured %Inh value, entry: CSc1ccc(NC2=C(c3ccccc3Cl)C(=O)NC2=O)cc1 [SB-342411]
Reply: 0%

Query: Provide measured %Inh value, entry: Fc1ccc(Nc2nccc(-c3c(-c4ccc(Cl)cc4)nn4ncccc34)n2)cc1F [GW829058]
Reply: 40%

Query: Provide measured %Inh value, entry: Cl.Cn1ccc(-c2cccc(Nc3ccnc4cc(-c5nccs5)ccc34)c2)n1 [GW525701]
Reply: 0%
